target.system: T1, M1-2
T1 construct: also called PD1 mutant M1-2
assay.notes: scFv-phage ELISA
measurement.kind: OD490
I'd appreciate a reply containing only the number, no unit.

INSERT INTO assay_data (binder, experimental_value) VALUES
  ('PD1-45D6 (antibody, V domains shown, scFv-phage in the screening ELISA; whole IgG in the other assays) VH: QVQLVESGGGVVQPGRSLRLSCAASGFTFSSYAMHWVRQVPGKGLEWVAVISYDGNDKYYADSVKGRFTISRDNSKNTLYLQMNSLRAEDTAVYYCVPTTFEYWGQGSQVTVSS VL: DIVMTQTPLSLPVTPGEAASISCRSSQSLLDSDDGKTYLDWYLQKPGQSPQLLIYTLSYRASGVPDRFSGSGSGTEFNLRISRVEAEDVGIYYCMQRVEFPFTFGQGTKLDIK', 3.9);

In the following, a different binder is considered.
PD1-52E8 (antibody, V domains shown, scFv-phage in the screening ELISA; whole IgG in the other assays) VH: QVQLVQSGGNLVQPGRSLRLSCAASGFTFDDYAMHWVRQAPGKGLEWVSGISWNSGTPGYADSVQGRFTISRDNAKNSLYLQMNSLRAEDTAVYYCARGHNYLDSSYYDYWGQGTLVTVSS VL: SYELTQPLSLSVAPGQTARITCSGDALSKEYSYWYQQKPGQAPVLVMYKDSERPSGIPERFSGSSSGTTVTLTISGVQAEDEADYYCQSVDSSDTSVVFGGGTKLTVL has a reported OD490 of 3.6
